Task for the reader: assign each of the following binders its reported IC80 (µg/ml) with constrains.
target-entity: HIV Env of isolate R1166.c01 (clade AE) (HIV)
method: cell-based or functional assay
Give bare numbers, in µg/mL.

{"binder": "ePGDM9 (antibody, V domains shown) VH: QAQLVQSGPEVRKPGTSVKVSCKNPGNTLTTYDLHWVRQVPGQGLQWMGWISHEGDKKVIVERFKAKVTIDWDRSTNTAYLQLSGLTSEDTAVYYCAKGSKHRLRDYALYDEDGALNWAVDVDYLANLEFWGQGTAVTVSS VL: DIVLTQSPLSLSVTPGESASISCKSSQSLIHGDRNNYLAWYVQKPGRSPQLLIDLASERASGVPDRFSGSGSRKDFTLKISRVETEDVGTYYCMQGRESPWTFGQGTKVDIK", "quantity-unit": "µg/mL", "IC80 (µg/ml) with constrains": 0.86}
{"binder": "ePGDM13 (antibody, V domains shown) VH: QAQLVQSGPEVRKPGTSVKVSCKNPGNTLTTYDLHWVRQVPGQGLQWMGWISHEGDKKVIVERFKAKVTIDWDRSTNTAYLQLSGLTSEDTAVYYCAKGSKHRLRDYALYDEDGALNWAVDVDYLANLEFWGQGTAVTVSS VL: DIVLTQSPLSLSVTPGESASISCKSSHSLQHGDRNNYLAWYVQKPGRSPQLLLDLASERASGVPDRFSGSGSEKDFTLKISRVETEDVGTYYCMQGRESPWTFGQGTKVDIK", "quantity-unit": "µg/mL", "IC80 (µg/ml) with constrains": 0.777}
{"binder": "ePGDM5 (antibody, V domains shown) VH: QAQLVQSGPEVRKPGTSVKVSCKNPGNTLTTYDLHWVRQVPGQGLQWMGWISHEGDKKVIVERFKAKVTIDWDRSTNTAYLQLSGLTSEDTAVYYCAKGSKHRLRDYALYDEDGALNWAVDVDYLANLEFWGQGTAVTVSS VL: DFVLTQSPLSLSVTPGESASISCKSDHSLQHGDRNNYLAWYVQKPGRSPQLLIDLASERASGVPDRFSGSGSRKDFTLKIDRVEAEDVGTYYCMQGRESPWTFGQGTKVDIK", "quantity-unit": "µg/mL", "IC80 (µg/ml) with constrains": 0.664}

Next binder, please.
Exercise: Which IC80 (µg/ml) with constrains is reported for this binder? PGDM1400 (antibody, V domains shown) VH: QVHLTQSGPEVRKPGTSVKVSCKAPGNTLKTYDLHWVRSVPGQGLQWMGWISHEGDKKVIVERFKAKVTIDWDRSTNTAYLQLSGLTSGDTAVYYCAKGSKHRLRDYALYDDDGALNWAVDVDYLSNLEFWGQGTAVTVSS VL: DFVLTQSPHSLSVTPGESASISCKSSHSLIHGDRNNYLAWYVQKPGRSPQLLIYLASSRASGVPDRFSGSGSDKDFTLKISRVETEDVGTYYCMQGRESPWTFGQGTKVDIK
Solution: 5.92
